# assay_target: sGC α1/β1 heterodimer stably expressed in CHO-K1 cells (CHO-K1/sGC) (Homo sapiens, UniProt Q02108+Q02153)
# Sequence (Q02108 whole entry): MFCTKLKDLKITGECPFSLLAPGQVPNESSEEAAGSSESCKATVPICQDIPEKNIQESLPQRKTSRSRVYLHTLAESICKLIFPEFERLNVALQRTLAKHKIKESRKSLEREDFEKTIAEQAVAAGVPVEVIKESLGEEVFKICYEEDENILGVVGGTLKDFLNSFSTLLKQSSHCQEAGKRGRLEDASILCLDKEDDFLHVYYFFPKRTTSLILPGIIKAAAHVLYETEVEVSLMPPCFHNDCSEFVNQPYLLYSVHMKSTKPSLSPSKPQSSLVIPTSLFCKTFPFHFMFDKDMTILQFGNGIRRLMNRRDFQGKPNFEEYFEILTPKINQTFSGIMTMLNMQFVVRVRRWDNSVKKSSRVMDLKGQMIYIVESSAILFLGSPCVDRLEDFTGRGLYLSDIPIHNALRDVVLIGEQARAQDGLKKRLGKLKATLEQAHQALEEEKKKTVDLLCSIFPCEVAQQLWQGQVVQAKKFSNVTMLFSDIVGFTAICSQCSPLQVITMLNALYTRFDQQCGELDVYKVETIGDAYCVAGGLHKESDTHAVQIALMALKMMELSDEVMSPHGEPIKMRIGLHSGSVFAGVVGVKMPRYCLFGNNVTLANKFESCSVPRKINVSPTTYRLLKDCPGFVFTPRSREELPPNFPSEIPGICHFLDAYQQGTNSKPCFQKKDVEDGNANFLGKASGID
# Sequence (Q02153 whole entry): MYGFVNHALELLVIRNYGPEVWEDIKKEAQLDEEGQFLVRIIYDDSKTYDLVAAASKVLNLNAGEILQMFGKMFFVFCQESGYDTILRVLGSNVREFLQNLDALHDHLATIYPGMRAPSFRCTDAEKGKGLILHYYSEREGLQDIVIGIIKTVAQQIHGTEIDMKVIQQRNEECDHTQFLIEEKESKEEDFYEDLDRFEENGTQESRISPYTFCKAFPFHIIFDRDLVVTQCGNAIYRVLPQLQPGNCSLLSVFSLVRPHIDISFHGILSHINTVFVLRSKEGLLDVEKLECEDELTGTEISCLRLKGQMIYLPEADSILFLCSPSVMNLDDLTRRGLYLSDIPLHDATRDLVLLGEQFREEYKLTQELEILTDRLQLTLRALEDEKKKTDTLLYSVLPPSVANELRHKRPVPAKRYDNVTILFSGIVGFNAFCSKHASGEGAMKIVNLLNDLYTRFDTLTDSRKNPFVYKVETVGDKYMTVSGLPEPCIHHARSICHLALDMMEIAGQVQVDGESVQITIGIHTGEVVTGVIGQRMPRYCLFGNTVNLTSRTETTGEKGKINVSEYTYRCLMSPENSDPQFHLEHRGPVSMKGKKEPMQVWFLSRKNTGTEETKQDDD
# method: Cell-based sGC Functional Assay (CASA Assay)
# conditions: inflection point of cGMP generation in CHO-K1/sGC cells, 4P fit; 1 hr at 37° C.; read-out: IP
// EC50 lookup, one value per entry
// note: answer is a bare numeric in nM

Reference set (4 entries):
- molecule: "Cn1ncc2c(-c3nc(N)c4c(n3)NC(=O)C4(C)c3ccccn3)nc(CCCC(F)(F)F)nc21 (stereo not drawn)"
  EC50 / nM: 138
- molecule: "CCC1(c2cn(C(C)C)nn2)C(=O)Nc2nc(-c3nc(CCC(F)(F)C(F)(F)F)nc4c3cnn4C)nc(N)c21 (single isomer, unassigned)"
  EC50 / nM: 811
- molecule: "CCn1cc(C2(C)C(=O)Nc3nc(-c4nc(CCC(F)(F)C(F)(F)F)nc5c4cnn5C)nc(N)c32)nn1 (single isomer, unassigned)"
  EC50 / nM: 259
- molecule: "[2H]C([2H])([2H])n1ncc2c(-c3nc(N)c4c(n3)NC(=O)C4(C)c3ccc4cccnc4c3)nc(CCC(F)(F)C(F)(F)F)nc21 (stereo not drawn)"
  EC50 / nM: 29

Requested read-out: EC50. Entry: Cn1cc(C2(C3CC3)C(=O)Nc3nc(-c4nc(CCC(F)(F)C(F)(F)F)nc5c4cnn5C)nc(N)c32)cn1 (stereo not drawn)
475

Requested read-out: EC50. Entry: Cn1ncc2c(-c3nc(N)c4c(n3)NC(=O)C4(c3nnc(C4(C)CC4)o3)C3CC3)nc(CCC(F)(F)C(F)(F)F)nc21 (stereo not drawn)
399

###

# assay_target: sGC α1/β1 heterodimer stably expressed in CHO-K1 cells (CHO-K1/sGC) (Homo sapiens, UniProt Q02108+Q02153)
# method: Cell-based sGC Functional Assay (CASA Assay)
# conditions: inflection point of cGMP generation in CHO-K1/sGC cells, 4P fit; 1 hr at 37° C.; read-out: IP
Simple rule here: EC50 less than 200 nM is 1, otherwise -1.

- compound: "CCn1cc(C2(CC)C(=O)Nc3nc(-c4nc(CCC(F)(F)C(F)(F)F)nc5c4cnn5C)nc(N)c32)nn1 (single isomer, unassigned)"
  answer_label: -1
- compound: "[2H]C([2H])([2H])n1ncc2c(-c3nc(N)c4c(n3)NC(=O)C4(c3nnc(C4CCC4)o3)C3CC3)nc(CCC(F)(F)C(F)(F)F)nc21 (stereo not drawn)"
  answer_label: -1
- compound: "[2H]C([2H])([2H])n1ncc2c(-c3nc(N)c4c(n3)NC(=O)C4(C)c3nc(C4CC4)no3)nc(CCC(F)(F)C(F)(F)F)nc21 (stereo not drawn)"
  answer_label: 1
- compound: "[2H]C([2H])([2H])n1ncc2c(-c3nc(N)c4c(n3)NC(=O)C4(C)c3ccccn3)nc(CCC(F)(F)C(F)(F)F)nc21 (stereo not drawn)"
  answer_label: -1
- compound: "Cn1ncc2c(-c3nc(N)c4c(n3)NC(=O)C4(c3nnc(C4CC4)o3)C3CC3)nc(CC3CC(F)(F)C3)nc21 (stereo not drawn)"
  answer_label: 1

Strictly below 200 nM: is that where EC50 of CC(C)n1ncc(C2(C)C(=O)Nc3nc(-c4nc(CCC(F)(F)C(F)(F)F)nc5c4cnn5C)nc(N)c32)n1 (stereo not drawn) sits?
-1
